Biological target: Induced myeloid leukemia cell differentiation protein Mcl-1 (Homo sapiens) (UniProt Q07820)
Sequence (Q07820 whole entry, looked up): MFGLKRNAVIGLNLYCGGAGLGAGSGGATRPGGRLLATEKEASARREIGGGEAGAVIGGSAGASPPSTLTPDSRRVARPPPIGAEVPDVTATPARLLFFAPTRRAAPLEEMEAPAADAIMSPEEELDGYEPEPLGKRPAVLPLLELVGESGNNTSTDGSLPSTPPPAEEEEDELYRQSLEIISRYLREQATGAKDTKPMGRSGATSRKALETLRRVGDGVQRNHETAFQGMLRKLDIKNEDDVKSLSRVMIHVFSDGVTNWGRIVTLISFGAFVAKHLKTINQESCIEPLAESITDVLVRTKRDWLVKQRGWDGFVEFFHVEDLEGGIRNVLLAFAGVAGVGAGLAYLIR
Assay: blockers of Bid binding to Mcl-1 – biochemical, TR-FRET, dose response (AID 1418)
Details: Mcl-1/Bid peptide binding, TR-FRET (europium/Dy647), 2 hr
Calls of active or inactive are those of the source. How the calls were made is not given here.
Select the correct class. Options are YES for active, NO for inactive and nothing else.

### Prompt Hey, what did the test say about COc1ccc(C2C(C#N)=C(N)OC3=C2C(=O)CCC3)cc1OC (stereo not drawn) ?
### Response NO

### Prompt Query: recorded result category for `O=C(O)c1cc(-c2ccc(/C=C3/SC(=S)N(Cc4ccccc4)C3=O)o2)ccc1Cl` in this test
### Response YES

### Prompt What did the test return for `O=C1C(=Cc2cccn2-c2ccc(O)cc2)C(=O)c2ccccc21` ?
### Response YES

### Prompt Look up the recorded call for CCN(CC)c1ccc(NC(=O)Cn2c(C(C)NC(=O)c3ccc(C)cc3)nc3ccccc32)cc1 (stereo not drawn) in this test.
### Response YES

### Prompt Dear all, I need the recorded test outcome for `O=C(O)CCC(=O)NCCC1=c2ccccc2=N/C1=C\c1c(O)n(Cc2ccc(F)cc2)c(=S)[nH]c1=O` , thank you.
### Response YES

### Prompt Record lookup: outcome of this test for `Clc1cccc(Cl)c1CON/C=N/c1ncnc2sccc12` ?
### Response NO

### Prompt Tell me the assay call for `COc1ccc(C(C)=O)cc1COc1ccc(Cl)cc1Cl` please.
### Response NO

### Prompt Recorded test outcome, item `O=C(O)c1ccc2ncsc2c1`
### Response YES

Hey, just so you know, these numbers are from PubChem BioAssay AID1418.
